molecular target: HIV Env of isolate 6041.v3.c23 (clade AC) (HIV); experiment: cell-based or functional assay
# IC80 (µg/ml) with constrains annotations
parameter: IC80 (µg/ml) with constrains (µg/mL)

binder	parameter	unitAbbreviation	result
ePGDM13 (antibody, V domains shown) VH: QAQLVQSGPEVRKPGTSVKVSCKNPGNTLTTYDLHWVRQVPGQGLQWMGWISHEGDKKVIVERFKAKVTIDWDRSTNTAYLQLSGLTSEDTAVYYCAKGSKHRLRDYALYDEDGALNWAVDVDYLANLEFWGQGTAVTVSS VL: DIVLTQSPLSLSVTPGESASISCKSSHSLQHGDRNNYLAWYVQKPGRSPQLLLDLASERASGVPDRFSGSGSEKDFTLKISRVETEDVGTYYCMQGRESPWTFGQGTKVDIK	IC80 (µg/ml) with constrains	µg/mL	0.029
ePGDM5 (antibody, V domains shown) VH: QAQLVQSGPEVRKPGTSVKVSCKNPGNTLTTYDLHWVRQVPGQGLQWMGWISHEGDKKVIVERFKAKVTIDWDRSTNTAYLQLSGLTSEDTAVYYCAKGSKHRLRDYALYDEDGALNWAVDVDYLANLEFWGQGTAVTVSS VL: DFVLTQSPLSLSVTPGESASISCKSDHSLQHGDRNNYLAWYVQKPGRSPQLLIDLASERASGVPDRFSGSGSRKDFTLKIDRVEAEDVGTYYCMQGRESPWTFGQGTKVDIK	IC80 (µg/ml) with constrains	µg/mL	0.021
ePGDM9 (antibody, V domains shown) VH: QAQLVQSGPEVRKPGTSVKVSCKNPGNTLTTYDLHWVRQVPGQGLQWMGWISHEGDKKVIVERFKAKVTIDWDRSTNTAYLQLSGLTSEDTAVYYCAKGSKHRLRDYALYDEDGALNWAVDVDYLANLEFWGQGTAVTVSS VL: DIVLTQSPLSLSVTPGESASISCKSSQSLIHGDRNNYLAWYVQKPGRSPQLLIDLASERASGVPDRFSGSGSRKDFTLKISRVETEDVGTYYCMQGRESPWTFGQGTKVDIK	IC80 (µg/ml) with constrains	µg/mL	0.007
PGDM1400 (antibody, V domains shown) VH: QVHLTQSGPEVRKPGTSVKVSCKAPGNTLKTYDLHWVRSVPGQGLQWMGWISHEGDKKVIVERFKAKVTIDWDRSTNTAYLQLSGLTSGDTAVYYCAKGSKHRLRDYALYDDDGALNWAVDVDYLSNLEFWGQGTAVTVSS VL: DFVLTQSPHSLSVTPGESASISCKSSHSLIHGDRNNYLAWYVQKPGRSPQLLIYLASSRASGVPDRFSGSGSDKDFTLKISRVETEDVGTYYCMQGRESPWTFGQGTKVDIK	IC80 (µg/ml) with constrains	µg/mL	0.064
